Tested on: BT-549 breast
ASSAY_NAME: NCI-60 one-dose screen, 48 h
CONDITION_SUMMARY: 10 µM unless noted
Compounds without any hit were thinned out: in the full panel of roughly 83,000, 20% have a hit. Calls of active or inactive are those of the source. How the source made its calls: active means growth percent below 10; inactive means the rest.
Possible outcomes: Yes for active, No for inactive

[
  {
    "COMPOUND": "COc1cc(C(=O)/C=C/c2c(C(F)(F)F)nc3ccccn23)cc(OC)c1OC",
    "EXPERIMENTAL_TARGET": "BT-549 breast",
    "GROUP_LABEL": "No"
  },
  {
    "COMPOUND": "Clc1ccc2c(NCCCN3CCN(c4nc(-n5ccnc5)nc5ccccc45)CC3)ccnc2c1",
    "EXPERIMENTAL_TARGET": "BT-549 breast",
    "GROUP_LABEL": "No"
  },
  {
    "COMPOUND": "CCNCCNc1cc(-c2ccc(Cl)cc2)c(C#N)c2nc3ccccc3n12",
    "EXPERIMENTAL_TARGET": "BT-549 breast",
    "GROUP_LABEL": "Yes"
  },
  {
    "COMPOUND": "COc1ccc2cc(-c3ccc(C(=O)NN)c(C)n3)ccc2c1",
    "EXPERIMENTAL_TARGET": "BT-549 breast",
    "GROUP_LABEL": "No"
  },
  {
    "COMPOUND": "OC(CBr)c1ccnc2ccccc12 (stereo not given)",
    "EXPERIMENTAL_TARGET": "BT-549 breast",
    "GROUP_LABEL": "No"
  },
  {
    "COMPOUND": "CCN(CC)S(=O)(=O)c1ccc(O)c(NC(=O)c2[nH]c(C)c(C(C)=O)c2CCc2ccc(Cl)cc2)c1",
    "EXPERIMENTAL_TARGET": "BT-549 breast",
    "GROUP_LABEL": "No"
  },
  {
    "COMPOUND": "COc1ccccc1C(=O)NC(=S)Nc1ccc(-c2nc3ccccc3[nH]2)cc1",
    "EXPERIMENTAL_TARGET": "BT-549 breast",
    "GROUP_LABEL": "No"
  },
  {
    "COMPOUND": "CCn1c(Sc2nnc(NC(=O)CSC(=S)N3CCCCC3)s2)nc2c1c(=O)n(C)c(=O)n2C",
    "EXPERIMENTAL_TARGET": "BT-549 breast",
    "GROUP_LABEL": "No"
  },
  {
    "COMPOUND": "C=CCO[C@H]1CO[C@H]2[C@@H]1OC[C@@H]2Oc1ccc(Nc2ccnc(Nc3ccc(O[C@H]4CO[C@H]5[C@@H]4OC[C@@H]5OCC=C)c(Cl)c3)n2)cc1Cl",
    "EXPERIMENTAL_TARGET": "BT-549 breast",
    "GROUP_LABEL": "No"
  },
  {
    "COMPOUND": "COC(=O)c1ccc(CSc2nnc(-c3ccncc3)o2)cc1",
    "EXPERIMENTAL_TARGET": "BT-549 breast",
    "GROUP_LABEL": "No"
  },
  {
    "COMPOUND": "C[C@@H]1CC[C@@H]2[C@@H]1[C@H](OC(=O)c1ccc3ccccc3c1)[C@]1(C3CCCCC3)C[C@@H](OC(=O)CO)[C@@]2(C)O1",
    "EXPERIMENTAL_TARGET": "BT-549 breast",
    "GROUP_LABEL": "Yes"
  },
  {
    "COMPOUND": "O=C(O)CC1Sc2ccccc2NC1=O (stereo not given)",
    "EXPERIMENTAL_TARGET": "BT-549 breast",
    "GROUP_LABEL": "No"
  },
  {
    "COMPOUND": "NC(=S)c1csc(CCNC(=O)c2ccccc2)n1",
    "EXPERIMENTAL_TARGET": "BT-549 breast",
    "GROUP_LABEL": "No"
  },
  {
    "COMPOUND": "CC(C)CCC[C@@H](C)[C@H]1CCC2C3=CCn4c(=O)ccc(=O)n4C3CC[C@@]21C (stereo not given in full)",
    "EXPERIMENTAL_TARGET": "BT-549 breast",
    "GROUP_LABEL": "Yes"
  },
  {
    "COMPOUND": "Cc1cc(-c2ccccc2)cc(SC#N)[n+]1[O-]",
    "EXPERIMENTAL_TARGET": "BT-549 breast",
    "GROUP_LABEL": "No"
  },
  {
    "COMPOUND": "COc1ccccc1NC(=O)Nc1ccc(-c2nc3ccccc3o2)cc1",
    "EXPERIMENTAL_TARGET": "BT-549 breast",
    "GROUP_LABEL": "No"
  },
  {
    "COMPOUND": "O=C1Nc2ccccc2SC1C1SC(=S)N(Cc2ccccc2)C1=O (stereo not given)",
    "EXPERIMENTAL_TARGET": "BT-549 breast",
    "GROUP_LABEL": "No"
  },
  {
    "COMPOUND": "COc1cc2oc(-c3cccc(C(=O)Nc4ccc(C)cc4)c3)cc(=O)c2c(OC)c1OC",
    "EXPERIMENTAL_TARGET": "BT-549 breast",
    "GROUP_LABEL": "No"
  },
  {
    "COMPOUND": "CCCN1CCN(c2ccc3nc(-c4ccc5nc(-c6ccc(OCC)c(OCC)c6)[nH]c5c4)[nH]c3c2)CC1",
    "EXPERIMENTAL_TARGET": "BT-549 breast",
    "GROUP_LABEL": "Yes"
  },
  {
    "COMPOUND": "CCOC(=O)c1ccc(NC(=O)CCCN(CC)CC)cc1",
    "EXPERIMENTAL_TARGET": "BT-549 breast",
    "GROUP_LABEL": "No"
  }
]
